Values were extracted from patent US11535629B2.

Below, each entry is listed alongside its reported IC50.
# Test system: UniProt:Q92800
# Sequence (Q92800 whole entry): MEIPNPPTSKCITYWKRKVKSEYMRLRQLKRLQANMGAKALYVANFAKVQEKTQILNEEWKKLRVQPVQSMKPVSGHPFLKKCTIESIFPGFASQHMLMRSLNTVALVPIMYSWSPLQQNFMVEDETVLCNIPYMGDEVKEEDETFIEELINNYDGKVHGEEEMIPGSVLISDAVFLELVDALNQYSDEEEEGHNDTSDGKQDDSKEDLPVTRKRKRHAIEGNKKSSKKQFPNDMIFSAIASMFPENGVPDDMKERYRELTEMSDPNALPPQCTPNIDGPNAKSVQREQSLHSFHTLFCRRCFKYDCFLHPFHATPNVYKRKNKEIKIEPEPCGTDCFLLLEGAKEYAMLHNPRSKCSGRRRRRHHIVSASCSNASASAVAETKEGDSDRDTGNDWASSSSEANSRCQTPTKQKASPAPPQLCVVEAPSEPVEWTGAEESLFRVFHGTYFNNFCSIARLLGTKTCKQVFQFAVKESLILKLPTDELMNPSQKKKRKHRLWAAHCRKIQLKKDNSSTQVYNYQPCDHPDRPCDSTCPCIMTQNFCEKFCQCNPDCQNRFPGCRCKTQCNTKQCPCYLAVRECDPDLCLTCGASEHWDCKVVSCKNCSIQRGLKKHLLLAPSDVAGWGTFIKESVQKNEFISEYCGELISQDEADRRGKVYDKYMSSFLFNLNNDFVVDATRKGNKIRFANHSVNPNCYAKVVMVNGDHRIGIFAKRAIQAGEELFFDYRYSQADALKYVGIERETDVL
# Sequence (O75530 whole entry partner): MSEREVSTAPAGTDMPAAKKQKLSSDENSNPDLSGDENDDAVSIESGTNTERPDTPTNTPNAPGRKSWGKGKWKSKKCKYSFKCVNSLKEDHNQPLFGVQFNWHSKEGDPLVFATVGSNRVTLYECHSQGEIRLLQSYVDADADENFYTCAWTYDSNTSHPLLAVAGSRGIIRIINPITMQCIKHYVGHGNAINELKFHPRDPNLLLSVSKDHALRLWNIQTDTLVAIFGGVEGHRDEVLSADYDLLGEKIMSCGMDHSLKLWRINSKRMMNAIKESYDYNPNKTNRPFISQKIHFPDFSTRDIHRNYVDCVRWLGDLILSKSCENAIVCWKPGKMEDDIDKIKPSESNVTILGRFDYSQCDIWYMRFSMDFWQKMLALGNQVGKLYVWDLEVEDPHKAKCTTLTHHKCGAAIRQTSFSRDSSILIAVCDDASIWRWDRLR
# Sequence (Q15022 whole entry partner): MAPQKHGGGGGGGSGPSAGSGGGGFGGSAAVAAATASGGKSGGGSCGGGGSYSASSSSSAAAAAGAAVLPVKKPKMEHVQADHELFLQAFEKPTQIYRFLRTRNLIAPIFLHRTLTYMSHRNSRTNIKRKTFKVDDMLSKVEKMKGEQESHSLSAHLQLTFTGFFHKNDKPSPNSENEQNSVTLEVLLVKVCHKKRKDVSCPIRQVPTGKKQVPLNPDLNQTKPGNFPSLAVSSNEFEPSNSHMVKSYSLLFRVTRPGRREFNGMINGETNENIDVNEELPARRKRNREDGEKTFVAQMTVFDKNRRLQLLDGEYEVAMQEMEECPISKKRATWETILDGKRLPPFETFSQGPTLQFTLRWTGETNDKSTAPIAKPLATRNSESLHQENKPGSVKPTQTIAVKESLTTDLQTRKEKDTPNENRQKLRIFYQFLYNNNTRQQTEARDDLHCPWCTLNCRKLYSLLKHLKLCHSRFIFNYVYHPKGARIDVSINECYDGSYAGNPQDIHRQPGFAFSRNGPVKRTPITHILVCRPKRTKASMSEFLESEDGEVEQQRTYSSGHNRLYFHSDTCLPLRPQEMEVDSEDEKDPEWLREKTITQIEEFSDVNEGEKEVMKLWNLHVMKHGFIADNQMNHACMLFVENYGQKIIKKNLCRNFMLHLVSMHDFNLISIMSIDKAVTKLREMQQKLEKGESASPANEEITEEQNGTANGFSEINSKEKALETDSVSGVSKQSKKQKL
# Sequence (Q09028 whole entry partner): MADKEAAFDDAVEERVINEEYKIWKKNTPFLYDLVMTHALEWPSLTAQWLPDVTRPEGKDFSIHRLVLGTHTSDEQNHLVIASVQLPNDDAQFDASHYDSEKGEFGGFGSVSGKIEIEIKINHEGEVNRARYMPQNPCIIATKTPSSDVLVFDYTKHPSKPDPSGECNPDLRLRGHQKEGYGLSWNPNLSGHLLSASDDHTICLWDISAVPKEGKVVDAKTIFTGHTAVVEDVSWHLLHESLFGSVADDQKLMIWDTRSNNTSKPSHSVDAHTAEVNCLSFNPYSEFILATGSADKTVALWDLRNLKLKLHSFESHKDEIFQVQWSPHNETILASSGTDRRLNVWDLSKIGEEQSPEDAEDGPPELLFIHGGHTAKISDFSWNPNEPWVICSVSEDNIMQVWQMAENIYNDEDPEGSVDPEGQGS
# Sequence (Q6ZN18 whole entry partner): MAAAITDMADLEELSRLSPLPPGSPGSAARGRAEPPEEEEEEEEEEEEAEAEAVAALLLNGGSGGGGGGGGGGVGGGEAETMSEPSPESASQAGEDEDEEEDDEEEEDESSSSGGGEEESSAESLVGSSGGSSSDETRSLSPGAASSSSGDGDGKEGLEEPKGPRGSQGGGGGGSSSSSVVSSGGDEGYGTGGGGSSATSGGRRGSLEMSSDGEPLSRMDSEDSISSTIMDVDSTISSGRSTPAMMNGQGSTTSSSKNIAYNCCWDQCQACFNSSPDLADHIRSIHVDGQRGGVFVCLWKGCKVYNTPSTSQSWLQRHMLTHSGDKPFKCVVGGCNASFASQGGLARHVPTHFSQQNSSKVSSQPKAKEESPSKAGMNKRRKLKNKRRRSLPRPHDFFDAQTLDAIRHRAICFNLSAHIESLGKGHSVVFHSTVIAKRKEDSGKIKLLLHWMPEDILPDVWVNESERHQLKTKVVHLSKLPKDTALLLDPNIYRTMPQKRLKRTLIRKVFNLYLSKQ
# Assay: EZH1 methyltransferase inhibitory activity (radiometric scintillation proximity assay)
# Recorded conditions: read-out: Enzyme inhibitory activity (IC50, nM) EZH1; 2.3 nmol/L EZH1, 90 minutes at room temperature
Metric: IC50

INSERT INTO assay_data (compound, data_value) VALUES
  ('Cc1cc(C)c(CN2CCc3c(c(C)c4c(c3-c3cccnc3)O[C@](C)([C@H]3CC[C@H](N(C)C)CC3)O4)C2=O)c(=O)[nH]1 [Compound 44]', '14 nM'),
  ('Cc1cc(C)c(CN2CCc3c(c(C)c4c(c3-c3cccs3)O[C@](C)([C@H]3CC[C@H](N(C)C)CC3)O4)C2=O)c(=O)[nH]1 [Compound 32]', '12 nM'),
  ('Cc1cc(C)c(CN2CCc3c(c(C)c4c(c3-c3ccncc3)O[C@](C)([C@H]3CC[C@H](N(C)C)CC3)O4)C2=O)c(=O)[nH]1 [Compound 34]', '32 nM'),
  ('Cc1cc(C)c(CN2CCc3c(c(C)c4c(c3-c3cncs3)O[C@](C)([C@H]3CC[C@H](N(C)C)CC3)O4)C2=O)c(=O)[nH]1 [Compound 52]', '18 nM'),
  ('Cc1cc(C)c(CN2CCc3c(c(C)c4c(c3-c3cccn3C)O[C@](C)([C@H]3CC[C@H](N(C)C)CC3)O4)C2=O)c(=O)[nH]1 [Compound 48]', '20 nM'),
  ('Cc1cc(C)c(CN2CCc3c(c(C)c4c(c3-c3ccc(C)o3)O[C@](C)([C@H]3CC[C@H](N(C)C)CC3)O4)C2=O)c(=O)[nH]1 [Compound 40]', '22 nM'),
  ('Cc1cc(C)c(CN2CCc3c(c(C)c4c(c3-c3ccsc3)O[C@](C)([C@H]3CC[C@H](N(C)C)CC3)O4)C2=O)c(=O)[nH]1 [Compound 50]', '22 nM');
